- experimentalDetails: Log P, partition between n-octanol and PBS
- Type: physicochemical
- particulars: partition coefficient between 1-octanol and PBS

molecule	Log P
C[n+]1cccc(Oc2ccc3c(c2)C2=NC3=Nc3c4cc(Oc5ccc[n+](C)c5)ccc4c4[n]3[Zn][n]3c(c5ccc(Oc6ccc[n+](C)c6)cc5c3=NC3=NC(=N4)c4cc(Oc5ccc[n+](C)c5)ccc43)=N2)c1.O=S(=O)(O)O.O=S(=O)(O)O.O=S(=O)([O-])[O-].O=S(=O)([O-])[O-]	–3.57
O=S(=O)([O-])c1ccc(Oc2ccc3c(c2)C2=Cc4c5ccc(Oc6ccc(S(=O)(=O)[O-])c7cccnc67)cc5c5[n]4[Zn][n]4c(c6ccc(Oc7ccc(S(=O)(=O)[O-])c8cccnc78)cc6c4=CC3=N2)=CC2=NC(=C5)c3ccc(Oc4ccc(S(=O)(=O)[O-])c5cccnc45)cc32)c2ncccc12.[Na+].[Na+].[Na+].[Na+]	–2.89
CSc1cc2c(cc1SC)C1=Nc3c4cc(SC)c(SC)cc4c4[n]3[Zn][n]3c(c5cc(SC)c(SC)cc5c3=NC2=N1)=NC1=NC(=N4)c2cc(Oc3c(Cn4cc[n+](C)c4)cc(C)cc3Cn3cc[n+](C)c3)c(Oc3c(Cn4cc[n+](C)c4)cc(C)cc3Cn3cc[n+](C)c3)cc21.[I-].[I-].[I-].[I-]	0.62
CC[N+](CC)(CC)CCSc1ccc(SCC[N+](CC)(CC)CC)c2c1C1=NC2=Nc2c3c(SCC[N+](CC)(CC)CC)ccc(SCC[N+](CC)(CC)CC)c3c3[n]2[Zn][n]2c(c4c(SCC[N+](CC)(CC)CC)ccc(SCC[N+](CC)(CC)CC)c4c2=NC2=NC(=N3)c3c(SCC[N+](CC)(CC)CC)ccc(SCC[N+](CC)(CC)CC)c32)=N1.[I-].[I-].[I-].[I-].[I-].[I-].[I-].[I-]	–1.65
CC[N+](CC)(CC)CCSc1cc2c(cc1SCC[N+](CC)(CC)CC)C1=Nc3c4cc(SCC[N+](CC)(CC)CC)c(SCC[N+](CC)(CC)CC)cc4c4[n]3[Zn][n]3c(c5cc(SCC[N+](CC)(CC)CC)c(SCC[N+](CC)(CC)CC)cc5c3=NC3=NC(=N4)c4cc(SCC[N+](CC)(CC)CC)c(SCC[N+](CC)(CC)CC)cc43)=NC2=N1.[I-].[I-].[I-].[I-].[I-].[I-].[I-].[I-]	–1.59
Cc1cc(Cn2cc[n+](C)c2)c(Oc2c3c(c(C)c(C)[n+]2C)C2=NC3=Nc3c4cc(SC(C)(C)C)c(SC(C)(C)C)cc4c4[n]3[Zn][n]3c(c5cc(SC(C)(C)C)c(SC(C)(C)C)cc5c3=N2)=NC2=NC(=N4)c3cc(SC(C)(C)C)c(SC(C)(C)C)cc32)c(Cn2cc[n+](C)c2)c1.[I-].[I-].[I-]	1.38
O=C([O-])c1cc(Oc2cc3c(cc2Oc2cc(C(=O)[O-])cc(C(=O)[O-])c2)C2=Nc4c5ccccc5c5[n]4[Zn][n]4c(c6ccccc6c4=NC3=N2)=NC2=NC(=N5)c3ccccc32)cc(C(=O)[O-])c1.[Na+].[Na+].[Na+].[Na+]	–2.70
O=S(=O)([O-])c1cc(S(=O)(=O)[O-])c2cc(Oc3cccc4c3C3=NC4=Nc4c5c(Oc6ccc7cc(S(=O)(=O)[O-])cc(S(=O)(=O)[O-])c7c6)cccc5c5[n]4[Zn][n]4c(c6cccc(Oc7ccc8cc(S(=O)(=O)[O-])cc(S(=O)(=O)[O-])c8c7)c6c4=NC4=NC(=N5)c5c(Oc6ccc7cc(S(=O)(=O)[O-])cc(S(=O)(=O)[O-])c7c6)cccc54)=N3)ccc2c1.[Na+].[Na+].[Na+].[Na+].[Na+].[Na+].[Na+].[Na+]	–2.92
NCCc1ccc(Oc2cccc3c2C2=NC3=Nc3c4ccccc4c4[n]3[Zn][n]3c(c5ccccc5c3=N2)=NC2=NC(=N4)c3ccccc32)cc1 [C15Zn]	3.32
Cc1cc(Cn2cc[n+](C)c2)c(Oc2c3c(c(C)c(C)[n+]2C)C2=Nc4c5c(Oc6c(Cn7cc[n+](C)c7)cc(C)cc6Cn6cc[n+](C)c6)[n+](C)c(C)c(C)c5c5[n]4[Zn][n]4c(c6c(C)c(C)[n+](C)c(Oc7c(Cn8cc[n+](C)c8)cc(C)cc7Cn7cc[n+](C)c7)c6c4=NC4=NC(=N5)c5c4c(C)c(C)[n+](C)c5Oc4c(Cn5cc[n+](C)c5)cc(C)cc4Cn4cc[n+](C)c4)=NC3=N2)c(Cn2cc[n+](C)c2)c1.[I-].[I-].[I-].[I-].[I-].[I-].[I-].[I-].[I-].[I-].[I-].[I-] [C11Zn]	–2.25

Just for reference, paper PMC12951568 is where these values come from.
